target: T1, IIB-Fc:ALK7-Fc heterodimer (human ActRIIB ECD-Fc paired with human ALK7 ECD-Fc) (human, UniProt Q13705-1 19-134; Q8NER5-1 25-113); assay: SPR; same experiment as a1 (Biacore 8K, 37 °C, receptor dimers captured by anti-human Fc, HBS-EP+ with 350 mM NaCl added and 0.5 mg/mL BSA) but fitted with a bivalent analyte model (bold cells of Table 1); the first binding step is the one considered; conditions: both partners purified
T1 construct: activin receptor type IIB (ActRIIB) extracellular domain, human, aa 19-134 of NP_001097.2; activin receptor-like kinase 7 (ALK7) extracellular domain, human, aa 25-113 of NP_660302.2; copies: 1 + 1
T1 sequence (Q13705 19-134, chain 1 of 2): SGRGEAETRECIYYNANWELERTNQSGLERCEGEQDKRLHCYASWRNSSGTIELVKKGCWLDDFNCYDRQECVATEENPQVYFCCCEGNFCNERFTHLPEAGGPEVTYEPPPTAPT
T1 sequence (Q8NER5 25-113, chain 2 of 2): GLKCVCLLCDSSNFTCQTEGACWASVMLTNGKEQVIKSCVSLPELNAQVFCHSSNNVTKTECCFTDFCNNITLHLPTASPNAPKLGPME
test-readout: pKd
Worth noting: pKd values are minus log10 of concentrations stated in mol/L.

Retrieve pKd measured for BMP9 (ligand, human, UniProt Q9UK05 320-429, looked up, source: generated in house) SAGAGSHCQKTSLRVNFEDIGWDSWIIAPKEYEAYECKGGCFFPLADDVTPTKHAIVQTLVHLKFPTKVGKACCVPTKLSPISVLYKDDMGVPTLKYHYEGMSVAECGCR and print it.
8.64

Retrieve pKd measured for activin A (ligand, human, UniProt P08476 311-426, looked up, source: generated in house) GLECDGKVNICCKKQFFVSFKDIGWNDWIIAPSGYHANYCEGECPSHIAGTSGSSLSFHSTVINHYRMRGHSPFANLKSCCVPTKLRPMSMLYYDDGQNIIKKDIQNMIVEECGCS and print it.
9.39

Attribution: paper PMC8443706
